System: SKOV3 ovarian cancer cells
Settings: human, 24 h
Form field: Dark toxicity μM (IC10) (one value per entry).
Number in µM, nothing else.

Query string: What measured Dark toxicity μM (IC10) is associated with C=Cc1c(C)c2cc3nc(c(CC(=O)N[C@@H](CC(=O)O)C(=O)O)c4[nH]c(cc5nc(cc1[nH]2)C(C)=C5CC)c(C)c4C(=O)O)[C@@H](CCC(=O)O)[C@@H]3C [Talaporfin sodium] on SKOV3 ovarian cancer cells?
Result string: 11.10

Query string: What about this compound? CCC1=C(C)c2cc3[nH]c(cc4nc(c5c6[nH]c(cc1n2)c(C)c6C(=O)C5)[C@@H](CCC(=O)OC)[C@@H]4C)c(C)c3CO [Comparative Compound 1, reference compound]
Result string: 15.500

Query string: What about this compound? CCC1=C(C)c2cc3[nH]c(cc4nc(c5c6[nH]c(cc1n2)c(C)c6C(=O)C5)[C@@H](CCC(=O)OC)[C@@H]4C)c(C)c3COC(=O)CCCC[P+](c1ccccc1)(c1ccccc1)c1ccccc1
Result string: 0.415

Query string: What about this compound? CCC1=C(C)c2cc3[nH]c(cc4nc(c5c6[nH]c(cc1n2)c(C)c6C(=O)C5)[C@@H](CCC(=O)OC)[C@@H]4C)c(C)c3CN(C)C(=O)CCCC[P+](c1ccccc1)(c1ccccc1)c1ccccc1
Result string: 24.00
